# target: T1, recombinant human ASM protein (human, UniProt P17405 47-630)
# T1 construct: Recombinant human ASM in solution; also called acid sphingomyelinase (ASM) protein
# T1 sequence: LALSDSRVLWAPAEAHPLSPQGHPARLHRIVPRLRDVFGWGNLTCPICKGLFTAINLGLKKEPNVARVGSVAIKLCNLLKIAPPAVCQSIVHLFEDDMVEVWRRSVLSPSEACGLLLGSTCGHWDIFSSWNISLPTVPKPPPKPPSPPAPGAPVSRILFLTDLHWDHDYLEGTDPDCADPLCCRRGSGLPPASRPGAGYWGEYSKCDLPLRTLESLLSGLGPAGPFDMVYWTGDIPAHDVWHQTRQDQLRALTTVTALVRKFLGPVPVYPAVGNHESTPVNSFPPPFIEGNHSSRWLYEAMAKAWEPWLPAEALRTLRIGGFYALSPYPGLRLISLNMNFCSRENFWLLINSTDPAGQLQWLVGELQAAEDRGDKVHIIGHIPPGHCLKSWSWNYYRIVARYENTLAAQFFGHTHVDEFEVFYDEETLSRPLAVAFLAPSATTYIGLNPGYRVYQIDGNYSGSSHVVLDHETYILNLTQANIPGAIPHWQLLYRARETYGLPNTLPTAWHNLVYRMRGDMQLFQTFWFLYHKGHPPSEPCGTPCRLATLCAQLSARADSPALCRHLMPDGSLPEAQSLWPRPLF
# assay_overview: BLI (Octet), antibody on AHC sensor
outcome_measure: koff (s⁻¹)
All answers are understood in s⁻¹, so give the number only.

Item under review: #9104v-L27 (antibody, human IgG4 S228P, lambda, V domains shown, Full-length IgG, lambda) VH: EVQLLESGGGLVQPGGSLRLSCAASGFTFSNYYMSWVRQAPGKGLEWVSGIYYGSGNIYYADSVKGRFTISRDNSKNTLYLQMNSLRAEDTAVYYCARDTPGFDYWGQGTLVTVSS VL: QSVLTQPPSASGTPGQRVTISCTGSSSNIGNNAVNWYQQLPGTAPKLLIYYDSFRQSGVPDRFSGSKSGTSASLAISGLRSEDEADYYCGAWDYSLSAYVFGGGTKLTVLG . Reported koff?
0.000355
